# procedure.details: Monkey pharmacokinetic studies
# Format: in vivo, male Non-Naïve Cynomolgus Monkeys
# protocol.conditions: male, cynomolgus monkey, in vivo, PO 0.3 mg/kg
measured.quantity: Tmax

[in] May I ask what Tmax has been recorded for Cc1ncccc1[C@@H](O)CNC(C)(C)C [Compound 03-115] ?
[out] 1.17 h

* * *

Task for the reader: assign each of the following compounds its reported EC50.
# target.under.test: UniProtKB P07550
# Sequence (P07550 whole entry, species assumed): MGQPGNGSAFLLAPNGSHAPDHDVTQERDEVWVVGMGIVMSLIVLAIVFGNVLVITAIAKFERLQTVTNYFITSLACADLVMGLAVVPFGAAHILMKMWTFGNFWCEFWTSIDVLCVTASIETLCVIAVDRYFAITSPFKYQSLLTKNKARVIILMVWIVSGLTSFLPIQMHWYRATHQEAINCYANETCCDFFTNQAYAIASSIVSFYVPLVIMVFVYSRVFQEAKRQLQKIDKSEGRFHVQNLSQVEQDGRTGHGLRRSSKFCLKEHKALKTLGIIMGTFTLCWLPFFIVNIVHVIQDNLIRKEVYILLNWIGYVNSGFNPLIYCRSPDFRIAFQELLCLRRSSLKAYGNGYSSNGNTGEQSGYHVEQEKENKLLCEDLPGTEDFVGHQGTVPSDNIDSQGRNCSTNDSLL
# procedure.details: cAMP Gs dynamic HTRF assay, β2 expressing CHO cells
# Assay type: cell-based
# protocol.conditions: B2-AR; CHO-K1 (HitHunter); read-out: Average pEC50 [Receptor subtype: B2-AR; Cell type: CHO-K1 (HitHunter)] (converted)

[in] Recorded EC50 of "CC(C)(C)NC[C@H](O)c1cccc(-c2cccc(Cl)c2)n1" , please.
[out] < 10 nM

[in] Find the recorded EC50 belonging to "CC(C)(C)NC[C@H](O)c1cccc(NC2CCC2)n1" and report it.
[out] < 10 nM

[in] Fill in the blank: the reported EC50 of "CC(C)(C)NC[C@H](O)c1cccc(Nc2ccccc2)n1" is ____.
[out] < 10 nM

[in] Return reported EC50; argument: CC(C)(C)NC[C@@H](O)c1cccc(N2CC3CCCC3C2)n1 (stereo partly shown)
[out] 10 to 100 nM

[in] Report EC50 for "CC(C)(C)NC[C@H](O)c1cccc(-n2cccn2)n1" please.
[out] < 10 nM

[in] Can you share its EC50? I mean this compound: "Cn1ccc(-c2cccc([C@H](O)CNC(C)(C)C)n2)n1"
[out] 100 to 1000 nM

[in] Query (compound): "CC(C)(C)NC[C@H](O)c1cccnc1C(C)(F)F" ; field requested: EC50
[out] 100 to 1000 nM

[in] Which EC50 is listed for "CC(C)(C)NC[C@H](O)c1cccc(C2=NCCN2)n1" ?
[out] 100 to 1000 nM

[in] What does the record list as EC50 for OC(CNC1(C(F)(F)F)CC1)c1cccc(C(F)(F)F)n1 (stereo not shown) ?
[out] > 1000 nM

[in] Tell me the measured EC50 of "CN(C)C(=O)c1cccc([C@@H](O)CNC(C)(C)C)n1" , please.
[out] 100 to 1000 nM

[in] Data request, read-out EC50, for "CC(C)(C)NC[C@H](O)c1cccc(-c2cccnc2)n1"
[out] < 10 nM

[in] Can you look up the measured EC50 of "CCOc1ncccc1[C@@H](O)CNC(C)(C)C" for me?
[out] 10 to 100 nM

[in] Which EC50 reading was recorded for the compound "CCNc1cccc([C@@H](O)CNC(C)(C)C)n1" ?
[out] < 10 nM

[in] Entry "CCc1ncccc1[C@@H](O)CNC(C)(C)C" has what EC50?
[out] 100 to 1000 nM

[in] Find the recorded EC50 belonging to "CC(C)(C)NC[C@H](O)c1cccc(N2CCOCC2)n1" and report it.
[out] < 10 nM

[in] Record request: EC50 value, item "CC(C)(C)NC[C@@H](O)c1cccc(-n2cccn2)n1"
[out] 100 to 1000 nM

[in] Name the recorded EC50 for "COc1ccc(C[C@@H](C)NC[C@H](O)c2ccc(C)nc2)cc1" .
[out] < 10 nM

[in] # EC50 lookup, item "CC(C)(C)NC[C@H](O)c1ccc(C#N)c(C(F)(F)F)n1"
[out] 10 to 100 nM

[in] I would be grateful if you could share the reported EC50 for "O[C@H](CNC1CCC1)c1cccc(C(F)(F)F)n1" .
[out] > 1000 nM
